Entry source: paper PMC11951083

Target: 5-HT1A (h) (Homo sapiens)
Sequence (P08908 whole entry): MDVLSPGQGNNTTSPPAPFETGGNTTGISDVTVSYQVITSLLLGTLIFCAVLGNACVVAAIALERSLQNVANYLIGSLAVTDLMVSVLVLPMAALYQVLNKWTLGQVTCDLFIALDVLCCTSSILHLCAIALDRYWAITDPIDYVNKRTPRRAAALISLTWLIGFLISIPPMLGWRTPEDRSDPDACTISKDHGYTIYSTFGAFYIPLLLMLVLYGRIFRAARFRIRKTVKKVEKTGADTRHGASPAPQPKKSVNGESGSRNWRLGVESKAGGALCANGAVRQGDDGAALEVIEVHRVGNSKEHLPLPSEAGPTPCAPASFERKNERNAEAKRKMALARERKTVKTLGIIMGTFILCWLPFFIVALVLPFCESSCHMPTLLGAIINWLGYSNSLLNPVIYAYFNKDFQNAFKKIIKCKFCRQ
Assay: 5-HT1A (h) (agonist radioligand)
Settings: read-out: Inhibition 5-HT1A (h) (agonist radioligand)

| query-smiles | measurement-target | inhibition at 10 µM [%] |
| --- | --- | --- |
| O=C1CO[C@H]2CCN(C(=O)N3CC4(CC(CC5=C6C=CC(c7ccc[nH]7)=[N+]6[B-](F)(F)n6cccc65)C4)C3)C[C@H]2N1 | 5-HT1A (h) (Homo sapiens) | -2.4 |
| O=C(OC(C(F)(F)F)C(F)(F)F)N1CC2(CC(CC3=C4C=CC=[N+]4[B-](F)(F)n4cccc43)C2)C1 | 5-HT1A (h) (Homo sapiens) | -29.4 |
| O=C(O[C@H](CO)C(F)(F)F)N1CC2(CC(CC3=C4C=CC=[N+]4[B-](F)(F)n4cccc43)C2)C1 | 5-HT1A (h) (Homo sapiens) | 0 |
| O=C(OC(C(F)(F)F)C(F)(F)F)N1CC2(CC(CC3=C4C=CC(c5ccc[nH]5)=[N+]4[B-](F)(F)n4cccc43)C2)C1 | 5-HT1A (h) (Homo sapiens) | -5.5 |
| O=C(N1CC2(CC(CC3=C4C=CC=[N+]4[B-](F)(F)n4cccc43)C2)C1)N1CC2(CC(n3cnc(C4CC4)n3)C2)C1 | 5-HT1A (h) (Homo sapiens) | 2.4 |

* * *

Target: N neuronal alpha4beta2 (h) (Homo sapiens, UniProt P17787+P43681)
Sequence (P43681 29-627 limits assumed): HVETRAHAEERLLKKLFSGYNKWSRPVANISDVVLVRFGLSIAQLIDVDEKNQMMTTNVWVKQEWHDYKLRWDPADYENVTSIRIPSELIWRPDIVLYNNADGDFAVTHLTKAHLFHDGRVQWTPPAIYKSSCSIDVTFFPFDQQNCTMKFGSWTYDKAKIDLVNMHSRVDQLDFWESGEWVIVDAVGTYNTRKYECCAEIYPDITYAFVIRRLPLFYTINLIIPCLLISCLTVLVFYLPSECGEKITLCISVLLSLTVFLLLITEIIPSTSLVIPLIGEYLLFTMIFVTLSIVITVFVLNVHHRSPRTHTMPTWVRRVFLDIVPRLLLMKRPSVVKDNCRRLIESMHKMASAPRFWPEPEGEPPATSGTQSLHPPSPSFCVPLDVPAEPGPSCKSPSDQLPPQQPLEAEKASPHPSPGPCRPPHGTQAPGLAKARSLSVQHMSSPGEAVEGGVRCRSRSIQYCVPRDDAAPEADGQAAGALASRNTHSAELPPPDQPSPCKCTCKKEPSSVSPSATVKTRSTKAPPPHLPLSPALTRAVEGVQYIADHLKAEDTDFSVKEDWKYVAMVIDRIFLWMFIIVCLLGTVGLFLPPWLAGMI
Sequence (P17787 26-502): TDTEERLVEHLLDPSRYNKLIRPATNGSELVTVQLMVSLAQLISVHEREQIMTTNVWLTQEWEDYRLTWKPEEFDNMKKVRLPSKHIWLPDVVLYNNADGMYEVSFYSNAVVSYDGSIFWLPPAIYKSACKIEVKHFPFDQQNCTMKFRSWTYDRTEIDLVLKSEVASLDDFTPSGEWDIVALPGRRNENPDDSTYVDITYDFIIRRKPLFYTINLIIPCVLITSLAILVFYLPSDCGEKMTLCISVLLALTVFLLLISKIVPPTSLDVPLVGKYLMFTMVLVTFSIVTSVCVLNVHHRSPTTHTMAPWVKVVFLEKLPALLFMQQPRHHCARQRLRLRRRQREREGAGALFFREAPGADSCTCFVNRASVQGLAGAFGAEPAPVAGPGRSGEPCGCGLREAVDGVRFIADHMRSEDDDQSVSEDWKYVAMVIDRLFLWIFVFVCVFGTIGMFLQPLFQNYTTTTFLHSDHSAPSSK
Test: N neuronal alpha4beta2 (h) (agonist radioligand)
Conditions: read-out: Inhibition N neuronal alpha4beta2 (h) (agonist radioligand)
# maps each entry to its inhibition at 10 µM
value-type: inhibition at 10 µM (%)

| query-smiles | unit-of-measure | quantitative-result |
| --- | --- | --- |
| O=C(OC(C(F)(F)F)C(F)(F)F)N1CC2(CC(CC3=C4C=CC(c5ccc[nH]5)=[N+]4[B-](F)(F)n4cccc43)C2)C1 | % | 4.2 |
| O=C(O[C@H](CO)C(F)(F)F)N1CC2(CC(CC3=C4C=CC=[N+]4[B-](F)(F)n4cccc43)C2)C1 | % | -18.3 |
| O=C(OC(C(F)(F)F)C(F)(F)F)N1CC2(CC(CC3=C4C=CC=[N+]4[B-](F)(F)n4cccc43)C2)C1 | % | -1.7 |
| O=C(N1CC2(CC(CC3=C4C=CC=[N+]4[B-](F)(F)n4cccc43)C2)C1)N1CC2(CC(n3cnc(C4CC4)n3)C2)C1 | % | -16.6 |
| O=C1CO[C@H]2CCN(C(=O)N3CC4(CC(CC5=C6C=CC(c7ccc[nH]7)=[N+]6[B-](F)(F)n6cccc65)C4)C3)C[C@H]2N1 | % | -0.6 |

* * *

Target: UniProt P43088
Sequence (P43088 whole entry): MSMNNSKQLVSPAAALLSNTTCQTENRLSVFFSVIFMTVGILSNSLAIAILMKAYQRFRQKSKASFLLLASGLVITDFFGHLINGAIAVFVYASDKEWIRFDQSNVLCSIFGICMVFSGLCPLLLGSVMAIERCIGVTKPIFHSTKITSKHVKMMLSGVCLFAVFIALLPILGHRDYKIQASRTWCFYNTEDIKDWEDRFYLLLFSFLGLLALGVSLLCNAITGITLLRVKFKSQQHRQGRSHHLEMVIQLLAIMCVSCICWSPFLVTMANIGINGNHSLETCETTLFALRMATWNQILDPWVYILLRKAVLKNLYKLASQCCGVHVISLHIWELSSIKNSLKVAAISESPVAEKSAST
Assay: FP (h) (agonist radioligand)
Details: read-out: Inhibition FP (h) (agonist radioligand)
Reported values of inhibition at 10 µM for individual entries

| query-smiles | measurement-target | inhibition at 10 µM, % |
| --- | --- | --- |
| O=C(OC(C(F)(F)F)C(F)(F)F)N1CC2(CC(CC3=C4C=CC(c5ccc[nH]5)=[N+]4[B-](F)(F)n4cccc43)C2)C1 | UniProt P43088 | 4.4 |
| O=C(O[C@H](CO)C(F)(F)F)N1CC2(CC(CC3=C4C=CC=[N+]4[B-](F)(F)n4cccc43)C2)C1 | UniProt P43088 | 11.6 |
| O=C(N1CC2(CC(CC3=C4C=CC=[N+]4[B-](F)(F)n4cccc43)C2)C1)N1CC2(CC(n3cnc(C4CC4)n3)C2)C1 | UniProt P43088 | 10.4 |
| O=C1CO[C@H]2CCN(C(=O)N3CC4(CC(CC5=C6C=CC(c7ccc[nH]7)=[N+]6[B-](F)(F)n6cccc65)C4)C3)C[C@H]2N1 | UniProt P43088 | 16.3 |
| O=C(OC(C(F)(F)F)C(F)(F)F)N1CC2(CC(CC3=C4C=CC=[N+]4[B-](F)(F)n4cccc43)C2)C1 | UniProt P43088 | 6.5 |
